Values were extracted from paper PMC9052575.

Hi there, I'd appreciate the recorded IC50 for every entry that follows.
test system: MCF-7 cells; experiment: MTT anti-proliferative assay, MCF-7; type: cell-based, human; conditions: Homo sapiens, MCF7, 24 h, read-out: IC50 against MCF-7 cells

>>> observedvalue("O=C(C=Cc1ccccc1)c1ccc(OCc2cn(CCCN3C(=O)c4cccc5cccc(c45)C3=O)nn2)cc1 [12e]")
"> 100 µM"

I need IC50 for every entry listed below, if you could help.
1. COc1ccc(OC)c(/C=C/C(=O)c2ccc(OCc3cn(CCCN4C(=O)c5cccc6cccc(c56)C4=O)nn3)cc2)c1 [12g]
2. CC(=O)N1N=C(c2ccc(OCc3cn(CCCN4C(=O)c5cccc6cccc(c56)C4=O)nn3)cc2)CC1c1ccc([N+](=O)[O-])cc1 (stereo not shown) [13h]
3. COc1ccc(OC)c(/C=C/C(=O)c2ccc(OCc3cn(CCN4C(=O)c5cccc6cccc(c56)C4=O)nn3)cc2)c1 [12c]
4. O=C(/C=C/c1ccc([N+](=O)[O-])cc1)c1ccc(OCc2cn(CCCN3C(=O)c4cccc5cccc(c45)C3=O)nn2)cc1 [12h]
5. COc1ccc(/C=C/C(=O)c2ccc(OCc3cn(CCN4C(=O)c5cccc6cccc(c56)C4=O)nn3)cc2)cc1 [12b]
6. COc1ccc(OC)c(C2CC(c3ccc(OCc4cn(CCCN5C(=O)c6cccc7cccc(c67)C5=O)nn4)cc3)=NN2C(C)=O)c1 (stereo not shown) [13g]
7. COc1ccc(/C=C/C(=O)c2ccc(OCc3cn(CCCN4C(=O)c5cccc6cccc(c56)C4=O)nn3)cc2)cc1 [12f]
8. COc1ccc(OC)c(C2CC(c3ccc(OCc4cn(CCN5C(=O)c6cccc7cccc(c67)C5=O)nn4)cc3)=NN2C(C)=O)c1 (stereo not shown) [13c]

1: > 100 µM; 2: > 100 µM; 3: > 100 µM; 4: > 100 µM; 5: > 100 µM; 6: 62.2 µM; 7: > 100 µM; 8: > 100 µM

###

test system: MCF-7 cells; test: MTT anti-proliferative assay, MCF-7; format: cell-based, human; conditions: Homo sapiens, MCF7, 24 h, read-out: IC50 against MCF-7 cells
pIC50: −log10 of the molar value.
Hi there, I'd appreciate the recorded pIC50 for every entry that follows.

Take a look at these entries with their results.
>>> observedvalue("COc1ccc(C2CC(c3ccc(OCc4cn(CCCN5C(=O)c6cccc7cccc(c67)C5=O)nn4)cc3)=NN2C(C)=O)cc1 (stereo not shown) [13f]")
4.01
>>> observedvalue("CC(=O)N1N=C(c2ccc(OCc3cn(CCCN4C(=O)c5cccc6cccc(c56)C4=O)nn3)cc2)CC1c1ccccc1 (stereo not shown) [13e]")
"< 4.00"

I'm hoping you can list pIC50 for every molecule here, please.
1. CC(=O)N1N=C(c2ccc(OCc3cn(CCN4C(=O)c5cccc6cccc(c56)C4=O)nn3)cc2)CC1c1ccc([N+](=O)[O-])cc1 (stereo not shown) [13d]
2. CC(=O)N1N=C(c2ccc(OCc3cn(CCN4C(=O)c5cccc6cccc(c56)C4=O)nn3)cc2)CC1c1ccccc1 (stereo not shown) [13a]

1: < 4.00; 2: < 4.00

###

test system: MCF-7 cells; assay: MTT anti-proliferative assay, MCF-7; assay type: cell-based, human; conditions: Homo sapiens, MCF7, 24 h, read-out: IC50 against MCF-7 cells
observable: IC50

See these solved cases before continuing.
>>> observedvalue("O=C(/C=C/c1ccc([N+](=O)[O-])cc1)c1ccc(OCc2cn(CCN3C(=O)c4cccc5cccc(c45)C3=O)nn2)cc1 [12d]")
"> 100 µM"
>>> observedvalue("COc1ccc(C2CC(c3ccc(OCc4cn(CCN5C(=O)c6cccc7cccc(c67)C5=O)nn4)cc3)=NN2C(C)=O)cc1 (stereo not drawn) [13b]")
"> 100 µM"

Continue with the compound presented below.
Fill in IC50 for record CC1=CC(=O)c2c(O)cccc2C1=O [Plumbagin, reference compound] 3.5 µM
